Entry source: patent US12497460B2

Property: kd; scope: individual molecules
- Test target: HMM-mfMSR1 (monkey MSR1 extracellular domain)
- Sequence (as listed by the source): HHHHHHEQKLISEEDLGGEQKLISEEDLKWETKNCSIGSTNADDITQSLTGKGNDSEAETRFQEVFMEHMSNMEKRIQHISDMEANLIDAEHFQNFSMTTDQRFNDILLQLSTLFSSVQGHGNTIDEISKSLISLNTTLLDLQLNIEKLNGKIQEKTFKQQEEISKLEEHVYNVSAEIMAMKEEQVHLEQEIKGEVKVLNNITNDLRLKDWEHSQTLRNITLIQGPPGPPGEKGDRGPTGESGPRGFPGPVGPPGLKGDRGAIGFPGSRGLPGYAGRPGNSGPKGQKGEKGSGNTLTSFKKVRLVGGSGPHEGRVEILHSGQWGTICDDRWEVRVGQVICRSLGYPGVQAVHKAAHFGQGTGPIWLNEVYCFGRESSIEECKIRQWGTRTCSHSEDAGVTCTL
- Method notes: Biacore surface plasmon resonance binding kinetics of anti-MSR1 mAbs, antibody-capture format
- Study conditions: 37° C.; analyte HMM-mfMSR1; * = no dissociation observed, kd manually fixed at 1.00E−05; NB = no binding observed

Example molecules with recorded kd:
[[record]]
molecule = "H1H21231N: \"anti-MSR1 antibodies ... (21227N, 21231N, 21234N) were produced with the original human Fcγ portion\"; \"H1H\" = human IgG1 Fc (antibody, V domains shown, human IgG1 Fc, \"anti-MSR1 antibodies ; (21227N, 21231N, 21234N) were produced with the original human Fcγ portion\"; \"H1H\" = human IgG1 Fc) VH: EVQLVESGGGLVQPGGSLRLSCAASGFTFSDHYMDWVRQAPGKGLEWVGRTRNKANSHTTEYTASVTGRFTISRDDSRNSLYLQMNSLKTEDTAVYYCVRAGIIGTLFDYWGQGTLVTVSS VL: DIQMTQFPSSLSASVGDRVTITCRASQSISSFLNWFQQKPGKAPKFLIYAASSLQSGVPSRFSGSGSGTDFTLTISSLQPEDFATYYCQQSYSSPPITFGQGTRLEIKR"
result = "7.82e-05 s⁻¹"

[[record]]
molecule = "H1H27754P-N297Q: one of \"Twelve anti-MSR1 antibodies\"; \"made with an N297Q single point mutation in human Fcγ portion\" (antibody, V domains shown) VH: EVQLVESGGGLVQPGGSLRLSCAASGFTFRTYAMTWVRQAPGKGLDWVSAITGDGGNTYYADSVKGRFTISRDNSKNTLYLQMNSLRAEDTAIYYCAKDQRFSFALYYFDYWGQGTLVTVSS VL: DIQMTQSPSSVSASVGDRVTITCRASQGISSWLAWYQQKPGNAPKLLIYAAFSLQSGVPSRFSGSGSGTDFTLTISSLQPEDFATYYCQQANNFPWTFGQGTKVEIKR"
result = "3.53e-05 s⁻¹"

[[record]]
molecule = "H1H21227N: \"anti-MSR1 antibodies ... (21227N, 21231N, 21234N) were produced with the original human Fcγ portion\"; \"H1H\" = human IgG1 Fc (antibody, V domains shown, human IgG1 Fc, \"anti-MSR1 antibodies ; (21227N, 21231N, 21234N) were produced with the original human Fcγ portion\"; \"H1H\" = human IgG1 Fc) VH: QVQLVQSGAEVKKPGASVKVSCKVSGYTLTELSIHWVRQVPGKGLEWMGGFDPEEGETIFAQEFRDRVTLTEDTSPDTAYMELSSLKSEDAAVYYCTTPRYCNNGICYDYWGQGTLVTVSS VL: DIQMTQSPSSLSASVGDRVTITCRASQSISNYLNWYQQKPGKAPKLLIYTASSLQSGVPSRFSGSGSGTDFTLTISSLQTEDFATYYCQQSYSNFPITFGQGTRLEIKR"
result = "1.00E−05* s^−1"


// query kd value for entry H1H27731P-N297Q: one of "Twelve anti-MSR1 antibodies"; "made with an N297Q single point mutation in human Fcγ portion" (antibody, V domains shown) VH: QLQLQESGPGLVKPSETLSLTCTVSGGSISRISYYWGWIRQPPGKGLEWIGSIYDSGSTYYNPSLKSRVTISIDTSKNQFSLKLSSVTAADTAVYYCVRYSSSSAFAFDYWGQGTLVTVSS VL: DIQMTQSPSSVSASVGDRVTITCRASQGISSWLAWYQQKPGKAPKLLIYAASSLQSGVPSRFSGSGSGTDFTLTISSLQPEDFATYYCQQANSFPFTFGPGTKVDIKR 0.000187 s⁻¹
